Test system: MDA-MB-468
Assay: Peptide array-whole cell binding assay
Format: cell-based
Conditions: peptide conjugated to cellulose membrane (amino-PEG500), no free C-terminus; cells 75 × 10^3 cells/mL, 37 °C, 4 h; CyQUANT fluorescence relative to peptide 1; spots in duplicate
readoutLabel: Relative Cell Adhesion MDA-MB-468
Answer as a number with no unit attached.

Endpoint output: Relative Cell Adhesion MDA-MB-468 of YHWYGYAPQNVI [Peptide 12] . Value?
1.0

Endpoint output: Relative Cell Adhesion MDA-MB-468 of YHWYGYTPQAVI [Peptide 15] . Value?
1.2

Endpoint output: Relative Cell Adhesion MDA-MB-468 of Peptide 4: positive control peptide p160, VPWXEPAYQRFL, binds keratin 1 [reference compound] . Value?
1.1

Endpoint output: Relative Cell Adhesion MDA-MB-468 of WXEAAYQRFL [Peptide 5, positive control, peptide 18 from a previous study, WXEAAYQRFL, reference compound] . Value?
1.3

Endpoint output: Relative Cell Adhesion MDA-MB-468 of YAWYGYTPQNVI [Peptide 7] . Value?
1.1

Endpoint output: Relative Cell Adhesion MDA-MB-468 of YHWAGYTPQNVI [Peptide 9] . Value?
1.3

Endpoint output: Relative Cell Adhesion MDA-MB-468 of YHWYGATPQNVI [Peptide 11] . Value?
1.2

Endpoint output: Relative Cell Adhesion MDA-MB-468 of YHWYGYTPANVI [Peptide 14] . Value?
1.4

Endpoint output: Relative Cell Adhesion MDA-MB-468 of YGPWYNHYITQV [Peptide 3] . Value?
1.0

Endpoint output: Relative Cell Adhesion MDA-MB-468 of HWYGYTPQNVI [Peptide 20] . Value?
1.2

Endpoint output: Relative Cell Adhesion MDA-MB-468 of YHWYGYTPKNVI [Peptide 26] . Value?
1.3

Endpoint output: Relative Cell Adhesion MDA-MB-468 of YRWYGYTPQNVI [Peptide 25] . Value?
1.4

Endpoint output: Relative Cell Adhesion MDA-MB-468 of YHWYGFTPQNVI [Peptide 30] . Value?
1.3

Endpoint output: Relative Cell Adhesion MDA-MB-468 of YHWYGYTPQNV [Peptide 18] . Value?
1.4

Endpoint output: Relative Cell Adhesion MDA-MB-468 of YKWYGYTPQNVI [Peptide 24] . Value?
1.1

Endpoint output: Relative Cell Adhesion MDA-MB-468 of YHWYGYTPQNAI [Peptide 16] . Value?
1.1

Endpoint output: Relative Cell Adhesion MDA-MB-468 of Peptide 2: scrambled negative control sequence WQTNYIHPYVYG . Value?
1.1

Endpoint output: Relative Cell Adhesion MDA-MB-468 of YHAYGYTPQNVI [Peptide 8] . Value?
0.8

Endpoint output: Relative Cell Adhesion MDA-MB-468 of YHWYGYTPQDVI [Peptide 23] . Value?
1.6

Endpoint output: Relative Cell Adhesion MDA-MB-468 of YHWYGYTAQNVI [Peptide 13] . Value?
1.3
